- TEST SYSTEM: Pantothenate synthetase (Mycobacterium tuberculosis (strain ATCC 25618 / H37Rv))
- ASSAY NAME: Coupled enzyme confirmation of inhibitors against recombinant Mtb PanC (AID 375);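 further: 0% = full reaction with vehicle and 100% = no enzyme background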
- RUN CONDITIONS: coupled enzyme assay; at 10 µM, active compounds read high
Kindly supply the reported inhibition values for the records listed here.
Your answer is read as %, so omit the unit and give the number.

# input Report inhibition for O=C(c1ccco1)N1CCN(S(=O)(=O)c2ccc(Oc3ccccc3)cc2)CC1 please.
# output 0

# input Cool, now Cc1cc(N2C(=O)C(O)=C(C(=O)c3ccc(C)o3)C2c2cccs2)no1 (configuration not stated)
# output 0

# input Cool, now CCN(Cc1cc2cc(OC)ccc2[nH]c1=O)C(=O)c1ccncc1
# output 4

# input Cool, now CCn1c(SCC(=O)c2ccc(Cl)cc2)nnc1-c1ccoc1C
# output 0

# input Cool, now COc1ccc(-c2noc(-c3ccccc3C(=O)Nc3cccnc3)n2)cc1OC
# output 0

# input Cool, now O=C(O)CCCCCCC1C(=O)NC(=O)N1CCC(O)C1CCCCC1 (configuration not stated)
# output 0

# input Cool, now CCn1c(CSc2nc(C)cc(C)n2)nnc1SCC(=O)Nc1ccccc1
# output 5

# input Cool, now O=C(NCCc1ccccn1)c1ccc(COc2ccccc2)o1
# output 0

# input Cool, now COC(=O)[C@H](C)NC(=O)Nc1cccc(C(F)(F)F)c1
# output 0

# input Cool, now CCn1cc(C(=O)NCc2ccccc2OC)c(=O)c2cc(S(=O)(=O)N(C)C)ccc21
# output 0

# input Cool, now COc1cccc(C(=O)Nc2ccc(C)cc2)c1
# output 1

# input Cool, now COc1cccc(C2=NOC(C(=O)Nc3cc(C)nn3-c3ccccc3)C2)c1OC (configuration not stated)
# output 0

# input Cool, now Nc1c(S(=O)(=O)c2cccs2)c2nc3ccccc3nc2n1CC1CCCO1 (configuration not stated)
# output 0

# input Cool, now CCOC(=O)c1cnn(-c2ncnc3c2cnn3Cc2ccccc2)c1N
# output 5

# input Cool, now COc1ccc(NC(=O)CC2Oc3ccccc3NC2=O)cc1 (configuration not stated)
# output 0

# input Cool, now CCCNS(=O)(=O)c1ccc(OCC(=O)Nc2ccccc2F)cc1
# output 0

# input Cool, now COc1cccc(CN=CC2=C(O)CC(C)(C)CC2=O)c1OC
# output 0

# input Cool, now Cc1nc2scc(-c3ccco3)c2c(=O)n1/N=C/N(C)C
# output 0

# input Cool, now Cc1ccc2c(c1)-c1c(cnn1CC(=O)NC(C)CCc1ccco1)CO2 (configuration not stated)
# output 0

# input Cool, now COc1ccc(C)cc1NS(=O)(=O)c1ccc(NS(=O)(=O)c2ccc(NC(C)=O)cc2)cc1
# output 1

# input Cool, now O=P(OCC(F)(F)C(F)F)(N1CCCCC1)N1CCCCC1
# output 3

# input Cool, now COc1ccc(CCN2CC(O)=C(c3nc4ccccc4c(=O)[nH]3)C2=N)cc1OC
# output 0
